- Tested on: LXRa:RXRa (NR concentration 270 nM, RXRa partner concentration 90 nM)
- assay-method-text: PBM binding z-score (relative to random genomic background probes); higher = stronger binding; sequences stand for … in GC…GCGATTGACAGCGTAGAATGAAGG
property-measured: PBM binding z-score
Respond numerically, and do not add a unit to the figure.

Solved cases (5 shown):
primary-sequence: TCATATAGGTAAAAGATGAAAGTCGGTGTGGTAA
PBM binding z-score: 1.17

primary-sequence: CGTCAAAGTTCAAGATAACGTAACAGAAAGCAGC
PBM binding z-score: 5.32

primary-sequence: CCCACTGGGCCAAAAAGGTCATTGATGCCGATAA
PBM binding z-score: 4.24

primary-sequence: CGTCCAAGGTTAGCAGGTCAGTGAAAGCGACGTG
PBM binding z-score: 1.26

primary-sequence: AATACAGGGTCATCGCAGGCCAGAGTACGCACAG
PBM binding z-score: 6.19

Measured PBM binding z-score of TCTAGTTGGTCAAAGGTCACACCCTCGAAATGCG : 5.27

Value of PBM binding z-score reported for the sequence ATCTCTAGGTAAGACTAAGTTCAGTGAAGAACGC is 0.867

# sequence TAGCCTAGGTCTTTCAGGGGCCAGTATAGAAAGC ; its PBM binding z-score = -0.379

PBM binding z-score in this record for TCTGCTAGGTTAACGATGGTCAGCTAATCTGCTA : 0.817

Briefly, PBM binding z-score measured for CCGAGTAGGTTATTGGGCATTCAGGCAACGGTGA : 0.327

Entry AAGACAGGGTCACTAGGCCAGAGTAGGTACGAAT — recorded PBM binding z-score = 3.14

Quick note, PBM binding z-score for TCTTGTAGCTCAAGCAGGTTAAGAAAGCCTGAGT landed at -0.287

---

- System: VDR homodimer (NR concentration 270 nM)
- assay-method-text: PBM binding z-score (relative to random genomic background probes); higher = stronger binding; sequences stand for … in GC…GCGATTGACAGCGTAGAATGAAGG
Label rule met when PBM binding z-score >= 0.8; otherwise rule not met.

Answered examples (3):
primary-sequence: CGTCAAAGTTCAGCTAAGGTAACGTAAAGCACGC
category: rule met
--
primary-sequence: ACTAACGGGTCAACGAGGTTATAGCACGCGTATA
category: rule met
--
primary-sequence: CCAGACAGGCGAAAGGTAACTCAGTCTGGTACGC
category: rule not met

Prompt: Check this sequence for PBM binding z-score at or above 0.8: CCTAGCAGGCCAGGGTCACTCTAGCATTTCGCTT
Response: rule met

Prompt: Hi, just wondering whether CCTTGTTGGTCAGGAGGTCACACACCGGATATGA shows PBM binding z-score of 0.8 or higher.
Response: rule met

Prompt: Say whether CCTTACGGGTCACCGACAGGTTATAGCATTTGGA shows PBM binding z-score of 0.8 or more.
Response: rule met

Prompt: Is PBM binding z-score at least 0.8? Consider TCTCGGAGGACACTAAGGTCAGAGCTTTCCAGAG
Response: rule met

Prompt: Can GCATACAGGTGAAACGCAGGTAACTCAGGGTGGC be said to have PBM binding z-score at or above 0.8?
Response: rule not met

Prompt: Answer whether PBM binding z-score of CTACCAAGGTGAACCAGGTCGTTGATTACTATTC is greater than or equal to 0.8.
Response: rule met
